Item-by-item account of ED50
Species: Mus musculus
Test: Analgesic activity in mouse by Eddy hot-plate method
Type: functional

c1ccc(CCN2CCC3CC(C2)c2ccccc23)cc1 (configuration not stated) = 8.8 mg/kg
COc1ccc2c3c1O[C@H]1[C@@H](O)C=C[C@H]4[C@@H](C2)N(C)CC[C@@]341 [CODEINE] = 7.5 mg/kg
CC1CCN(C)CCc2ccc(O)cc21 (configuration not stated) = 12.5 mg/kg
CN1CCC2CC(C1)c1ccccc12 (configuration not stated) = 4.2 mg/kg
CN1CCC2CC1Cc1ccccc12 (configuration not stated) = 11.2 mg/kg

Ask: Quick one: ED50 of CCCN1CCC2CC(C1)c1ccccc12 (configuration not stated) ?
Reply: 16.2 mg/kg
